Value source: PubChem BioAssay

Measured composite z-score values are reported for all entries that follow.
Study System: Concanavalin-A (Canavalia ensiformis) (UniProt P02866)
Sequence (P02866 whole entry, looked up): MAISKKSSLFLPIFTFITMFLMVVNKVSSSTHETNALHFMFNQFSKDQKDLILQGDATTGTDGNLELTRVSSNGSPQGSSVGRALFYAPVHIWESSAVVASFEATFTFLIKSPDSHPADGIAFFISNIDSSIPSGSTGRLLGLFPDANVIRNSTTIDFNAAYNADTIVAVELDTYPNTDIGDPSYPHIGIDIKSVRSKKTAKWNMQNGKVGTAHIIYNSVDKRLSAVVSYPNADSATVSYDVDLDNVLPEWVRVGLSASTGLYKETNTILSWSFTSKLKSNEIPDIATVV
Protocol Details: ConA small-molecule binders, primary screen, artefact control for SMM control protein annotation, biochemical, small-molecule microarray, Alexa647 label, 635 nm (AID 1127);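 further: z combines 667 nm emission intensity with signal-to-noise across three replicate slides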
Conditions Used: ConA-A647 binding fluorescence, higher = more signal
// response body must contain only the number

Known results for molecules:
Q: I am curious: what composite z-score value has been reported for "COCCOC(=O)N1C(=O)[C@@]2(c3cc(C#CCCO)ccc31)[C@H](c1ccc(OCCO)cc1)N1[C@H](c3ccccc3)[C@H](c3ccccc3)OC(=O)[C@H]1[C@@H]2C(=O)N1CCN(c2ncccn2)CC1" ?
A: 1.15

Q: I am curious: what composite z-score value has been reported for "CCCC#C[Si](O[C@H](CC)c1cn([C@H](CO)Cc2ccccc2)nn1)(C(C)C)C(C)C" ?
A: 0.632

Q: I am curious: what composite z-score value has been reported for "[N-]=[N+]=Nc1ccccc1[C@H]1OC(c2ccc(OCCCO)cc2)=N[C@@]1(Cc1ccccc1)C(=O)O" ?
A: 0.619

With those in mind, consider the next molecule.
Q: I am curious: what composite z-score value has been reported for O=C1OCCC/C=C\[C@H]2OC34C=CCN(Cn5nnc6ccccc65)C(=O)[C@H]3N(CCCCCCO)C(=O)[C@@H]4C12 (some centres undefined) ?
A: -0.472

----------
Protocol Details: basal RPMI8226 viability, no added stimulus, profiling panel, cell-based, calcein-AM fluorescence, 48 h, PK04 Diversity Set (AID 1166);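 further: cells grown under basal conditions without added stimulus; test concentration not given here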
Conditions Used: RPMI8226 myeloma viability, higher = more signal
Measured z-score values are reported for all entries that follow.
// response body must contain only the number

Known results for compounds:
Q: I am curious: what z-score value has been reported for "C=C(CCCC)/C(=C/C[C@@H](OC(C)=O)c1ccccc1OCCO)c1cnc2ccccc2c1" ?
A: -3.31

Q: I am curious: what z-score value has been reported for "COc1ccc([Si](C)(C)[C@H]2[C@H](CC(=O)N3CCC[C@H]3CO)O[C@@]3(C(=O)N(Cc4cccc(N5C(=O)c6cccc7cccc5c67)c4)c4ccccc43)[C@@H]2C)cc1" ?
A: -3.99

Q: I am curious: what z-score value has been reported for "O=C1c2ccccc2[C@](Cc2ccccc2I)(C(=O)NC2CC2)[C@H](c2ccc(CO)cc2)N1C1CCCCC1" ?
A: -1.98

Q: I am curious: what z-score value has been reported for [N-]=[N+]=Nc1ccccc1C[C@]1(C(=O)NCC(O)CO)N=C(c2ccc(OCCCO)cc2)O[C@H]1c1ccccc1N=[N+]=[N-] (stereo not given in full) ?
A: -3.14

Q: I am curious: what z-score value has been reported for CN1C(=O)C2C=CC(C(O)C3=C[C@H]4C[C@@H](C3)C4(C)C)N(Nc3ccccc3)C2C1=O (stereo not given in full) ?
A: -0.724

Q: I am curious: what z-score value has been reported for "CO[C@H]1O[C@H](CO)[C@@H](OC(=O)Nc2ccc(Br)cc2)[C@H](OC(=O)c2cc3ccccc3[nH]2)[C@H]1OC(=O)c1cc2ccccc2[nH]1" ?
A: -3.2

***
Q: I am curious: what z-score value has been reported for CCCCN1CC=CC23O[C@@H]4/C=C\CCC(C)OC(=O)C4[C@H]2C(=O)N(CCCCCO)[C@@H]3C1=O (stereo not given in full) ?
A: 0.096
